Taken from the Human Domainome abundance scans (Beltran et al. 2025).

B1: Segment polarity protein dishevelled homolog DVL-3, residues 2 to 81; numbered along this chain, Q92997 (parent)
chain: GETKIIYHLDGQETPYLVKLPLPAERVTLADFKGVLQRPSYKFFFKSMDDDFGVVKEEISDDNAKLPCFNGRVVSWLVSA

variants of: B1; assay: abundance fitness (aPCA) (normalised: wild type 0, dead -1); higher = more abundant; growth selection in yeast, the domain comes from the species named; details: Homo sapiens
Kindly supply the reported abundance fitness values for the records listed here.
Answer with the value's number alone.

[in] For the variant S79E , report abundance fitness.
[out] 0.002

[in] For the variant V73N , report abundance fitness.
[out] -0.569

[in] For the variant L36P , report abundance fitness.
[out] -0.244

[in] For the variant D50T , report abundance fitness.
[out] -0.074
